Test system: HCT-15
protocolDescription: NCI-60 anticancer screening (SRB)
Type: cell-based
testContext: Homo sapiens; HCT-15, colon cancer; one dose 10 μM; read-out: Growth Inhibition Percentage (GI %)
metric: inhibition at 10 µM

Known results for molecules:
# molecule, inhibition at 10 µM
records = [
    ("CCOC(=O)C1=C(N)N(c2ccc(Cl)cc2)C2=C(C(=O)CC(C)(C)C2)C1c1ccc(N2CCOCC2)cc1 (racemic) [8m]", "< 10%"),
    ("CCOC(=O)C1=C(N)N(c2ccc(C)cc2)C2=C(C(=O)CC(C)(C)C2)C1c1ccccc1Cl (racemic) [6b]", "30%"),
    ("CCOC(=O)C1=C(N)N(c2ccccc2)C2=C(C(=O)CC(C)(C)C2)C1c1ccc([N+](=O)[O-])cc1 (racemic) [8i]", "14%"),
    ("CCOC(=O)C1=C(N)N(c2ccc(Cl)cc2)C2=C(C(=O)CC(C)(C)C2)C1c1ccccc1OC (racemic) [6i]", "59%"),
    ("CCOC(=O)C1=C(N)N(c2ccccc2)C2=C(C(=O)CC(C)(C)C2)C1c1ccccn1 (racemic) [12a]", "< 10%"),
]

inhibition at 10 µM recorded for this molecule, CCOC(=O)C1=C(N)N(c2ccccc2)C2=C(C(=O)CC(C)(C)C2)C1c1ccc(F)cc1 (racemic) [8a] , is < 10%

Sample CCOC(=O)C1=C(N)N(c2ccc(Cl)cc2)C2=C(C(=O)CC(C)(C)C2)C1c1ccc(OC)cc1 (racemic) [8h] ; inhibition at 10 µM observed: < 10%

inhibition at 10 µM reading for CCOC(=O)C1=C(N)N(c2ccccc2)C2=C(C(=O)CC(C)(C)C2)C1c1ccc(Cl)cc1 (racemic) [8c] : 85%

Lab note: CCOC(=O)C1=C(N)N(c2ccccc2)C2=C(C(=O)CC(C)(C)C2)C1c1ccccc1Cl (racemic) [6a] gave inhibition at 10 µM of 51%

So, CCOC(=O)C1=C(N)N(c2ccc(Cl)cc2)C2=C(C(=O)CC(C)(C)C2)C1c1ccc(Cl)cc1 (racemic) [8e] ? Its inhibition at 10 µM was 58%

Measured inhibition at 10 µM, CCOC(=O)C1=C(N)N(c2ccc(C)cc2)C2=C(C(=O)CC(C)(C)C2)C1c1ccc(Cl)cc1 (racemic) [8d] : 35%

Entry CCOC(=O)C1=C(N)N(c2ccccc2)C2=C(C(=O)CC(C)(C)C2)C1c1cccc(Cl)c1Cl (racemic) [10a] ; inhibition at 10 µM = 34%

* * *

System: MOLT-4
protocolDescription: NCI-60 anticancer screening (SRB)
Format: cell-based
testContext: Homo sapiens; MOLT-4, leukemia; one dose 10 μM; read-out: Growth Inhibition Percentage (GI %)
inhibition at 10 µM: recorded values

# molecule, inhibition at 10 µM
measured = [
    ("CCOC(=O)C1=C(N)N(c2ccccc2)C2=C(C(=O)CC(C)(C)C2)C1c1ccc(Cl)cc1Cl (racemic) [10c]", "93%"),
    ("CCOC(=O)C1=C(N)N(c2ccccc2)C2=C(C(=O)CC(C)(C)C2)C1c1ccccc1Cl (racemic) [6a]", "75%"),
    ("CCOC(=O)C1=C(N)N(c2ccc(C)cc2)C2=C(C(=O)CC(C)(C)C2)C1c1ccc(Cl)cc1 (racemic) [8d]", "< 10%"),
    ("CCOC(=O)C1=C(N)N(c2ccccc2)C2=C(C(=O)CC(C)(C)C2)C1c1ccccc1Br (racemic) [6d]", "25%"),
]

Entry CCOC(=O)C1=C(N)N(c2ccc(Cl)cc2)C2=C(C(=O)CC(C)(C)C2)C1c1cccc(Cl)c1Cl (racemic) [10b] : inhibition at 10 µM on MOLT-4 = 70%

The measured inhibition at 10 µM that CCOC(=O)C1=C(N)N(c2ccc(Cl)cc2)C2=C(C(=O)CC(C)(C)C2)C1c1cccnc1 (racemic) [12f] showed for MOLT-4 is < 10%

Item: CCOC(=O)C1=C(N)N(c2ccccc2)C2=C(C(=O)CC(C)(C)C2)C1c1ccc(Cl)cc1 (racemic) [8c] | System: MOLT-4 | inhibition at 10 µM: 99%
